Target: Long-chain-fatty-acid--AMP ligase FadD32 (Mycobacterium tuberculosis (strain ATCC 25618 / H37Rv), UniProt O53580)
Sequence (O53580 whole entry): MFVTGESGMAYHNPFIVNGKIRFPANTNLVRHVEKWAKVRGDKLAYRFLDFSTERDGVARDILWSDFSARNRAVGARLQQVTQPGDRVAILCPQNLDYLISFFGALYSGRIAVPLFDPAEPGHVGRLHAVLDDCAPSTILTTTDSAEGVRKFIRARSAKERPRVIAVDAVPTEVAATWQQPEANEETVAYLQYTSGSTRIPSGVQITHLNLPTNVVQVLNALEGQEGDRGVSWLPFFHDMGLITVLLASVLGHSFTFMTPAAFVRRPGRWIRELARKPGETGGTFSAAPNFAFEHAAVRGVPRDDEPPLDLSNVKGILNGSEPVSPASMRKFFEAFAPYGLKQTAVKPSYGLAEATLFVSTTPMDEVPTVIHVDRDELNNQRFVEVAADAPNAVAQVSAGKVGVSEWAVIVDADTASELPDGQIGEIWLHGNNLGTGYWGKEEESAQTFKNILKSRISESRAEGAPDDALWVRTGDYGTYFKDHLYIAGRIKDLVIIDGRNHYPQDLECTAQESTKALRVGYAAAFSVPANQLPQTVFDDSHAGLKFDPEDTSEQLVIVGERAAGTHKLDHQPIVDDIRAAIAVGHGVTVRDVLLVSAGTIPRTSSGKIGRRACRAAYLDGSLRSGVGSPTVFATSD
Assay: Inhibition of Mycobacterium tuberculosis FAAL32 using AMPC12 as substrate incubated for 50 mins and measured by spectrophotometric assay
Readout: IC50
Value and unit, in that order.

query: // lookup IC50 for Cc1cc(C(C#N)c2ccc(Cl)cc2)c(Cl)cc1NC(=O)c1cc(I)cc(I)c1O (stereo unspecified) [CLOSANTEL]
result: 7.7 µM

----------
System: Mycobacterium tuberculosis
Experiment: Antimicrobial activity against Mycobacterium tuberculosis H37Rv incubated for 24 hrs and measured by MTT assay
Format: functional
Readout: MIC

Would you please look over these solved cases?
{"Molecule": "Oc1c(Cl)cc(Cl)c(Cl)c1Cc1c(O)c(Cl)cc(Cl)c1Cl [HEXACHLOROPHENE]", "MIC": "0.08 µM"}
{"Molecule": "O=C(Nc1ccc([N+](=O)[O-])cc1Cl)c1cc(Cl)ccc1O [NICLOSAMIDE]", "MIC": "< 0.4 µM"}

Next molecule, please.
query: // lookup MIC for CC(C)(O)c1ccccc1CC[C@@H](SCC1(CC(=O)O)CC1)c1cccc(/C=C/c2ccc3ccc(Cl)cc3n2)c1 [MONTELUKAST]
result: > 1 µM

----------
Test system: Mycobacterium tuberculosis
Experiment: Antimicrobial activity against Mycobacterium tuberculosis H37Rv incubated for 24 hrs and measured by MTT assay
Format: functional
Where a name gives a salt, the structure may show the parent alone.
Hi! Could you tag entries with MIC below 0.3 µM as fulfilled, and those at or above as not fulfilled? Much appreciated.

Answered examples (2):
{"Molecule": "Cc1cc(C(C#N)c2ccc(Cl)cc2)c(Cl)cc1NC(=O)c1cc(I)cc(I)c1O (centres undefined)", "Category": "fulfilled"}
{"Molecule": "CCCCCCCCCCCCCCCC[N+](C)(C)CCN(Cc1ccc(OC)cc1)c1ncccn1 [THONZONIUM BROMIDE]", "Category": "not fulfilled"}

query: Quick check: MIC of "O=C(O)c1cn(C2CC2)c2cc(N3CCNCC3)c(F)cc2c1=O" under 0.3 µM?
result: not fulfilled

query: Quick check: MIC of O=C(Nc1ccc(Oc2ccc(Cl)cc2)c(Cl)c1)c1cc(I)cc(I)c1O [RAFOXANIDE] under 0.3 µM?
result: fulfilled

query: Quick check: MIC of "NNC(=O)c1ccncc1" under 0.3 µM?
result: not fulfilled

query: Quick check: MIC of CC(=O)Oc1ccccc1C(=O)Nc1ncc([N+](=O)[O-])s1 [NITAZOXANIDE] under 0.3 µM?
result: not fulfilled

query: Quick check: MIC of O=C(Nc1cc(Cl)cc(Cl)c1O)c1c(O)c(Cl)cc(Cl)c1Cl [OXYCLOZANIDE] under 0.3 µM?
result: not fulfilled

query: Quick check: MIC of CCCCC(CC)CNC(=N)NC(=N)NCCCCCCNC(=N)NC(=N)NCC(CC)CCCC (centres undefined) [ALEXIDINE DIHYDROCHLORIDE] under 0.3 µM?
result: not fulfilled

query: Quick check: MIC of Clc1ccc(COC(Cn2ccnc2)c2ccc(Cl)cc2Cl)c(Cl)c1 (centres undefined) under 0.3 µM?
result: not fulfilled
